test system: Plasmodium falciparum; experiment: Antimalarial activity as growth inhibition after 48 hrs against chloroquine-sensitive Plasmodium falciparum FDL-B; format: functional, organism-based
So basically: is IC50 under 8 µg/mL? Then Yes. Not under? Then No.

Please state whether IC50 is below 8 µg/mL for C=C(C#N)C(O)c1ccc(C(=O)OC)nc1Cl (stereo unspecified) Yes

Please state whether IC50 is below 8 µg/mL for C=C(C(=O)OC)C(O)c1cc(-c2ccccc2)cnc1Cl (stereo unspecified) No

Please state whether IC50 is below 8 µg/mL for C=C(C#N)C(O)c1cc(CC)cnc1Cl (stereo unspecified) Yes

Please state whether IC50 is below 8 µg/mL for C=C(C(=O)OC)C(O)c1cc(C)cnc1Cl (stereo unspecified) No

Please state whether IC50 is below 8 µg/mL for C=C(C#N)C(O)c1cc(C)cnc1Cl (stereo unspecified) Yes
